- assay-summary: survival rescue of mitochondrial mutant cells in low glucose, primary screen, MELAS cybrids, Rieske KO mouse fibroblasts, CellTiter-Glo (AID 1508586);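 also: z relative to plate mean and SD of compound and empty wells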
- measurement-parameters: Rieske KO mouse fibroblast survival, CellTiter-Glo 72 h
measurement-name: z-score
Answer field: number only, no words.

* O=C1NC(=O)C(N2CCc3ccccc32)=C1c1ccc(Cl)cc1 | 0.357
* Nc1nonc1-c1nc2cnccc2n1C1CCCCC1 | -0.207
* COc1cc2c(cc1Nc1nc(N3CCc4ccccc43)c3cc[nH]c3n1)N(C(=O)CN(C)C)CC2 | 2.39
* CN(C)CCc1c[nH]c2ccc(C[C@H]3COC(=O)N3)cc12 | -0.25

Supply measured z-score of `COc1cc(Nc2ncc3c(C)nc(-c4cccc(Oc5ccccc5)c4)n3n2)cc(OC)c1OC` in your reply.
0.0156

Supply measured z-score of `CS(=O)(=O)CCNCc1ccc(-c2ccc3ncnc(Nc4ccc(OCc5ccccc5)cc4)c3c2)o1` in your reply.
-0.312

Supply measured z-score of `Nc1nccc(-c2c(-c3ccc(F)cc3)ncn2CCCN2CCOCC2)n1` in your reply.
-0.324

Supply measured z-score of `COC(=O)Nc1nc2ccc(Oc3ccc(NC(=O)Nc4cc(C(F)(F)F)ccc4F)cc3)cc2s1` in your reply.
-0.719

Supply measured z-score of `COc1cc2ncn(-c3cc(OCc4ccccc4C(F)(F)F)c(C(C)=O)s3)c2cc1OC` in your reply.
0.0101

Supply measured z-score of `N#Cc1cccc(Nc2ncc(-c3ccccc3)o2)c1` in your reply.
0.0963

====

- assay-summary: glucagon-like peptide 1 release enhancers, primary assay, NCI-H716 cell line, NPC library (AID 1117341); also: reference of the scale not given here
- measurement-parameters: NCI-H716 cells, at 10 µM, stronger effect = higher value
Activity calls are given as the source filed them.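 Rule for the calls: active = compound raises GLP1 secretion from the human gut endocrine cells, with no numeric limit stated; inactive = the rest.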
measurement-name: GLP1 secretion stimulation

Here is how some compounds turned out for GLP1 secretion stimulation.
- CC(=O)CCC(=O)O: -2.2% (inactive)
- C#CC(C)(CC)OC(=O)c1ccccc1C(=O)O (centres undefined): 3.4% (inactive)
- CO[C@@H]1[C@@H](OC)[C@H](C)[C@@](O)(CC(=O)O)O[C@H]1[C@H](C)[C@H]1O[C@@]2(CC[C@@](C)([C@H]3CC[C@@](C)([C@@H]4O[C@@H]([C@H]5O[C@](C)(O)[C@H](C)C[C@@H]5C)C[C@@H]4OC4C[C@H](OC)[C@@H](OC)[C@H](C)O4)O3)O2)C[C@H](O)[C@H]1C (some centres undefined): 15% (inactive)
- CCCCOC(=O)CC(CC(=O)OCCCC)(OC(C)=O)C(=O)OCCCC: 0.1% (inactive)
- Cc1cnc(NS(=O)(=O)c2ccc(N)cc2)nc1: -0.6% (inactive)
- O=Cc1ccccc1C=O: 2.6% (inactive)
- N[C@@H](Cc1cc(I)c(Oc2cc(I)c(O)c(I)c2)c(I)c1)C(=O)O: 0.1% (inactive)
- C#C[C@]1(O)CC[C@@H]2[C@@H]3CCC4=CCCC[C@@H]4[C@H]3C(=C)C[C@@]21CC: -7.2% (inactive)

Supply measured GLP1 secretion stimulation of `CCCc1c2oc(C(=O)O)cc(=O)c2cc2c(=O)cc(C(=O)O)n(CC)c12` in your reply.
-2.3% (inactive)

Supply measured GLP1 secretion stimulation of CC(C)C[C@H](NC(=O)CNC(=O)[C@H](Cc1ccc(O)cc1)NC(=O)[C@H](CO)NC(=O)[C@H](Cc1c[nH]c2ccccc12)NC(=O)[C@H](Cc1cnc[nH]1)NC(=O)[C@@H]1CCC(=O)N1)C(=O)N[C@@H](CCCN=C(N)N)C(=O)N1CCC[C@H]1C(=O)NCC(N)=O (stereo in doubt) in your reply.
6% (inactive)

Supply measured GLP1 secretion stimulation of CCCCCC1Nc2cc(C(F)(F)F)c(S(N)(=O)=O)cc2S(=O)(=O)N1 (centres undefined) in your reply.
-0.1% (inactive)

Supply measured GLP1 secretion stimulation of `CCCNC(=O)NS(=O)(=O)c1ccc(Cl)cc1` in your reply.
6.4% (inactive)

Supply measured GLP1 secretion stimulation of `CCCCN1CCCC[C@H]1C(=O)Nc1c(C)cccc1C` in your reply.
2.9% (inactive)

Supply measured GLP1 secretion stimulation of `CCOC(=O)[C@H](CCc1ccccc1)N[C@H]1CCc2ccccc2N(CC(=O)O)C1=O` in your reply.
16.1% (inactive)
